Biological target: TAS2R39 (Homo sapiens, UniProt P59534)
Sequence (P59534 1-338): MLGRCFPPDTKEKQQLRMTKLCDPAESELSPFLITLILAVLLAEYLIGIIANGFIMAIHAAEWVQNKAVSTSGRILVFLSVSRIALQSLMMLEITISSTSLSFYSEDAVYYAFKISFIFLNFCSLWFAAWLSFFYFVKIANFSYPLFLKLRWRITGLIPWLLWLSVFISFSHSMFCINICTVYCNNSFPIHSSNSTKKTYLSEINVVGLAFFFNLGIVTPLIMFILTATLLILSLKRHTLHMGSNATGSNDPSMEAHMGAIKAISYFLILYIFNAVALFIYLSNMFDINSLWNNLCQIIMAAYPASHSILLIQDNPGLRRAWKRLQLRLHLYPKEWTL
Test: Calcium mobilization assay, HEK293T-Gα16gust44 cells expressing TAS2R39
Conditions: maximal concentration tested: sucralose 100 mM, neotame 30 µM, Ace-K 300 mM, RebA 4 mM, RebM 4 mM, mogroside V 5 mM, erythritol 200 mM, D-allulose 500 mM, thaumatin 100 mM

>  <SMILES RECORD>
OC[C@H]1O[C@H](O[C@]2(CCl)O[C@H](CCl)[C@@H](O)[C@@H]2O)[C@H](O)[C@@H](O)[C@H]1Cl

>  <Response of TAS2R39>
−

$$$$
>  <SMILES RECORD>
O=C(CO)[C@H](O)[C@H](O)[C@H](O)CO

>  <Response of TAS2R39>
−

$$$$
>  <SMILES RECORD>
COC(=O)[C@H](Cc1ccccc1)NC(=O)[C@H](CC(=O)O)NCCC(C)(C)C

>  <Response of TAS2R39>
−

$$$$
